- TESTED_ON: HLA-A*29:02
- PROCEDURE_SUMMARY: IEDB peptide-MHC binding, purified MHC/competitive/radioactivity; filed as Kd, often an IC50 or EC50 that approximates it; bounds were set here for any values at or beyond the usual limits of such assays
- CONDITIONS_USED: source organism: Mammarenavirus guanaritoense
Listed next: entries and their corresponding Kd.
QUANTITY: Kd (nM)

>  <ITEM_SEQUENCE>
RFFLPIFSEF

>  <QUANTITY>
Kd

>  <MODIFIER>
=

>  <TEST_RESULT>
1.03

$$$$
>  <ITEM_SEQUENCE>
EFFDCFKYIL

>  <QUANTITY>
Kd

>  <MODIFIER>
=

>  <TEST_RESULT>
645

$$$$
>  <ITEM_SEQUENCE>
TDSPETHHY

>  <QUANTITY>
Kd

>  <MODIFIER>
≥

>  <TEST_RESULT>
78900

$$$$
>  <ITEM_SEQUENCE>
FFLPIFSEF

>  <QUANTITY>
Kd

>  <MODIFIER>
=

>  <TEST_RESULT>
0.921

$$$$

* * *

- TESTED_ON: HLA-A*02:19
- PROCEDURE_SUMMARY: IEDB peptide-MHC binding, purified MHC/direct/fluorescence; filed as Kd, often an IC50 or EC50 that approximates it; bounds were set here for any values at or beyond the usual limits of such assays
- CONDITIONS_USED: source organism: Rickettsia typhi

>  <ITEM_SEQUENCE>
ELYPTVNTY

>  <Kd>
≥ 20 µM

$$$$

* * *

- TESTED_ON: HLA-A*31:01
- PROCEDURE_SUMMARY: IEDB peptide-MHC binding, purified MHC/direct/fluorescence; filed as Kd, often an IC50 or EC50 that approximates it; bounds were set here for any values at or beyond the usual limits of such assays
- CONDITIONS_USED: source organism: Influenza A virus (A/duck/Mongolia/47/2001(H7N1))

>  <ITEM_SEQUENCE>
THFQRKRRV

>  <Kd>
≥ 20 µM

$$$$

* * *

- TESTED_ON: HLA-A*02:01
- PROCEDURE_SUMMARY: IEDB peptide-MHC binding, purified MHC/direct/fluorescence; filed as Kd, often an IC50 or EC50 that approximates it; bounds were set here for any values at or beyond the usual limits of such assays
- CONDITIONS_USED: source organism: Rickettsia conorii
pKd: −log10 of the molar value.

>  <ITEM_SEQUENCE>
SSSGMDAYY

>  <pKd>
≤ 4.70

$$$$

* * *

- TESTED_ON: HLA-A*26:01
- PROCEDURE_SUMMARY: IEDB peptide-MHC binding, purified MHC/competitive/fluorescence; filed as Kd, often an IC50 or EC50 that approximates it; bounds were set here for any values at or beyond the usual limits of such assays
- CONDITIONS_USED: source organism: Escherichia coli O139:H28 str. E24377A
pKd: −log10 of the molar value.

>  <ITEM_SEQUENCE>
EIVAEYITY

>  <TESTED_ON>
HLA-A*26:01

>  <pKd>
7.38

$$$$
>  <ITEM_SEQUENCE>
YVVWLMFSL

>  <TESTED_ON>
HLA-A*26:01

>  <pKd>
≤ 4.70

$$$$
>  <ITEM_SEQUENCE>
SIPFGLMSA

>  <TESTED_ON>
HLA-A*26:01

>  <pKd>
≤ 4.70

$$$$
